Values were extracted from ChEMBL document CHEMBL4622864.

Molecular target: CYP1A2 (Homo sapiens)
Sequence (P05177 whole entry): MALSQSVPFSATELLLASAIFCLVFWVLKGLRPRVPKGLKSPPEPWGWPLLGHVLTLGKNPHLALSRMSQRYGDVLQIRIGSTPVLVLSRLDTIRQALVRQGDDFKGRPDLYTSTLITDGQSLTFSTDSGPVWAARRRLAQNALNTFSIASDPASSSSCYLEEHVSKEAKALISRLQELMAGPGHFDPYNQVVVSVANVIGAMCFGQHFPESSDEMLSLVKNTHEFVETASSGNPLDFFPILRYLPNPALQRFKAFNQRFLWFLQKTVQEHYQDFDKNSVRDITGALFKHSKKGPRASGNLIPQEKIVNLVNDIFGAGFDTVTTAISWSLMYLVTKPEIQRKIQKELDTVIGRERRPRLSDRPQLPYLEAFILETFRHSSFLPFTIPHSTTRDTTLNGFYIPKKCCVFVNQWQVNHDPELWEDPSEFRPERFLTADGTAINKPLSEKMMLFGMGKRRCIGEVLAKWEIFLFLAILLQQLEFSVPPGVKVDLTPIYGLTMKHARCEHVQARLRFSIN
Assay: Inhibition of CYP1A2 (unknown origin) at 10 uM relative to control
Assay type: ADME
testReadout: inhibition at 10 µM (%)
Just the number please, in %, no unit attached.

q: I would be grateful if you could share the reported inhibition at 10 µM for `C[C@@H](Oc1cncc(-c2cnn(C3CCNCC3)c2)c1)c1c(Cl)ccc(F)c1Cl` .
a: 55
